The values you see were collected from patent US5126336A.

# MIC values compiled below
Tested on: S. aureus Smith
Test: MIC, agar dilution
Format: cell-based
Conditions: Staphylococcus aureus, 18 h; S. aureus Smith (Table 3); read-out: MIC
quantity: MIC (µg/mL)

[[record]]
compound = "CO/N=C(\\C(=O)NC1C(=O)N2C(C(=O)[O-])=C(/C=C\\C[N+]3(C)Cc4cc(O)c(O)cc4C3)CS[C@H]12)c1csc(N)n1 (some centres unmarked)"
quantity = "MIC"
reported = 6.3

[[record]]
compound = "CC(C)(O/N=C(\\C(=O)NC1C(=O)N2C(C(=O)[O-])=C(/C=C\\C[N+]3(C)Cc4cc(O)c(O)cc4C3)CS[C@H]12)c1csc(N)n1)C(=O)O (some centres unmarked)"
quantity = "MIC"
reported = 25

[[record]]
compound = "CC(C)(O/N=C(\\C(=O)NC1C(=O)N2C(C(=O)[O-])=C(/C=C/C[N+]3(C)Cc4cc(O)c(O)cc4C3)CSC12)c1csc(N)n1)C(=O)O (centres unmarked)"
quantity = "MIC"
reported = 12.5

[[record]]
compound = "CO/N=C(\\C(=O)NC1C(=O)N2C(C(=O)[O-])=C(/C=C/C[N+]3(C)Cc4cc(O)c(O)cc4C3)CS[C@H]12)c1csc(N)n1 (some centres unmarked)"
quantity = "MIC"
reported = 1.6

[[record]]
compound = "CC(C)(O/N=C(\\C(=O)NC1C(=O)N2C(C(=O)O)=C(/C=C/Cn3ccc4cc(=O)c(O)cc-4c3)CS[C@H]12)c1csc(N)n1)C(=O)O (some centres unmarked)"
quantity = "MIC"
reported = 12.5

